target.entity: KRAS G12S (Homo sapiens, UniProt P01116, G12S)
Construct: made in house; host or cells: E. coli, e.g. BL21 (DE3)
Sequence (P01116 1-188 isoform P01116-2 G12S): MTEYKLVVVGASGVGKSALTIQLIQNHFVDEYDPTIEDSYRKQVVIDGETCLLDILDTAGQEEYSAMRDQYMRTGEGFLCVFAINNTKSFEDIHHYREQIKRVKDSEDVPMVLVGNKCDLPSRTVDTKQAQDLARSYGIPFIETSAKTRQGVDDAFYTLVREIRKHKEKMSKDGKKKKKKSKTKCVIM
method.notes: HTRF assay of K-Ras G12S interaction with SOS1 (PPI-HTRF)
Assay type: binding
measurement.context: PPI-HTRF-5 nM KRAS G12S
test.readout: IC50

**Query** What value of IC50 has been reported for the following compound? N#Cc1c(N)sc2c(F)ccc(-c3c(Cl)cc4c(N5CCC6(CCN6C(=O)Oc6ccc([N+](=O)[O-])cc6)C5)nc(OC[C@@]56CCCN5C[C@H](F)C6)nc4c3F)c12 (stereo partly shown)
**Result** < 5 µM
